- TGT: hHsp90β-FL (Homo sapiens, UniProt P08238)
- Construct: The gene encoding human full-length Hsp90β was subcloned from T47D cell line cDNA; His6 (N)
- ASSAY PROTOCOL: ITC direct binding to full-length Hsp90β
- REPORTED CONDITIONS: unphosphorylated hHsp90β-FL, 30 °C, read-out: Observed Kd
pKd: −log10 of the molar value.
MEASUREMENT TYPE: pKd

A = Nc1ncnc2c1ncn2[C@@H]1O[C@H](COP(=O)(O)OP(=O)(O)O)[C@@H](O)[C@H]1O
B = Nc1ncnc2c1ncn2[C@@H]1O[C@H](COP(=O)(O)OP(=O)(O)NP(=O)(O)O)[C@@H](O)[C@H]1O
C = Nc1ncnc2c1ncn2[C@@H]1O[C@H](COP(=O)(O)OP(=O)(O)OP(=O)(O)O)[C@@H](O)[C@H]1O
Req: Sort entries by pKd from minimum to maximum value. List each label, following the requested order.
Resp: B, A, C
